# SYSTEM NAME: 17β-hydroxysteroid dehydrogenase type 2 (Homo sapiens)
# Construct: expressed in transfected cells; host or cells: MCF-7
# Sequence (P37059 whole entry): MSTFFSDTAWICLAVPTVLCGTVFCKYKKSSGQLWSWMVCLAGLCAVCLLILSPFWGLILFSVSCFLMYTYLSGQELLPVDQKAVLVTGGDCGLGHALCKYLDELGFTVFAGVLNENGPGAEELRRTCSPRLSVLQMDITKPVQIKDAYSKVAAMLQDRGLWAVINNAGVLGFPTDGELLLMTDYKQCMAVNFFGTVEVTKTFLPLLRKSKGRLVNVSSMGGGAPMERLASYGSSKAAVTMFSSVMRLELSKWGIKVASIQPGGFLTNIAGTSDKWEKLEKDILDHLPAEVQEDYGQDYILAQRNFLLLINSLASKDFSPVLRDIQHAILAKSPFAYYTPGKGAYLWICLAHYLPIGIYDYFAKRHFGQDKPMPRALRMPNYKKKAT
# ASSAY SUMMARY: Inhibition of 17β-HSD type 2 in MCF-7 cells stably expressing the isoenzyme (HPLC, tritium labeled estradiol)
# Type: cell-based
# CONDITION DETAILS: MCF7, 1 μM compound, 2 nM estradiol, read-out: % Inhibition of the 17β-HSD enzyme type 2 (HSD2)
# From the text: Biological Testing Materials and Methods 1. Inhibition of the 17β-hydroxysteroid dehydrogenase type 1, type 2 and type 3 enzyme The compounds were screened in respect of 17β-HSD enzyme activity in vitro on established M CF-7 cell lines, each stably expressing one of the respective 17β-HSD isoenzymes. The interconversion of substrate by each isoenzyme and the 17β-HSD inhibiting activity of chemical compounds in these cell lines were detected by HPLC system. […]
Listed below: inhibition at 1 µM values for each entry.
The response must be a number in % with no trailing unit.

O=C1CCCc2c1sc1nc3ccccn3c(=O)c21; 15.1
CCc1nc2sc3c(c2c(=O)n1C)CCCC3; 20.6
CCCSC1=C(C=O)CCc2c1sc1nc3n(c(=O)c21)CCC(C(=O)OCC)CC3 (centres unmarked); 6.8
CC1CCc2c(sc3nc4n(c(=O)c23)CCCCC4)C1=O (centres unmarked); 18.2

-- ask Consider the compound CCOC(=O)C1CCc2nc3sc4c(c3c(=O)n2CC1)CCC(C=O)=C4Cl (centres unmarked) and give its measured inhibition at 1 µM.
-- reply 13.1

-- ask Consider the compound `CCCSC1=C(CO)CCc2c1sc1nc3n(c(=O)c21)CCCCC3` and give its measured inhibition at 1 µM.
-- reply 37.5

-- ask Consider the compound CCOC(=O)C1CCCn2c1nc1sc3c(c1c2=O)CCCC3 (centres unmarked) and give its measured inhibition at 1 µM.
-- reply 10.7

-- ask Consider the compound CCOC(=O)C1CCc2nc3sc4c(c3c(=O)n2CC1)CCCC4=O (centres unmarked) and give its measured inhibition at 1 µM.
-- reply 0.6

-- ask Consider the compound O=CC1=C([S+]([O-])c2ccccc2)c2sc3nc4n(c(=O)c3c2CC1)CCCCC4 (centres unmarked) and give its measured inhibition at 1 µM.
-- reply 12.8

-- ask Consider the compound `O=c1c2c3c(sc2nc2n1CCC2)CCCC3` and give its measured inhibition at 1 µM.
-- reply 37

-- ask Consider the compound `CCCCSC1=C(C=O)CCc2c1sc1nc3n(c(=O)c21)CCCCC3` and give its measured inhibition at 1 µM.
-- reply 8.2

-- ask Consider the compound `O=CC1=C(Cl)c2sc3nc4n(c(=O)c3c2CC1)CCCCCC4` and give its measured inhibition at 1 µM.
-- reply 3.5

-- ask Consider the compound `O=C1CCCc2c1sc1nc3n(c(=O)c21)CCCC3` and give its measured inhibition at 1 µM.
-- reply 25.7

-- ask Consider the compound `Cn1cnc2sc3c(c2c1=O)CCC(C=O)=C3Cl` and give its measured inhibition at 1 µM.
-- reply 9.6

---

# SYSTEM NAME: 17β-hydroxysteroid dehydrogenase type 1 (Homo sapiens, UniProt P14061)
# Construct: expressed in transfected cells; host or cells: MCF-7
# Sequence (P14061 1-328): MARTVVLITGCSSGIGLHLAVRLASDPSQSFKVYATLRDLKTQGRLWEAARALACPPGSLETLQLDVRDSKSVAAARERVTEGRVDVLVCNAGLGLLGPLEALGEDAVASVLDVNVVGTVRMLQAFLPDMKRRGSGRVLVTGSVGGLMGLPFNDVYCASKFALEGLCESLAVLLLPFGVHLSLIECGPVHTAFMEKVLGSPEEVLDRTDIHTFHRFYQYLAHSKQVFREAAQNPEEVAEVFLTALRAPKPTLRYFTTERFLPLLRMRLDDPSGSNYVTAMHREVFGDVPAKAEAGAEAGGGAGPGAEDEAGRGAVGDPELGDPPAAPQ
# ASSAY SUMMARY: Inhibition of 17β-HSD type 1 in MCF-7 cells stably expressing the isoenzyme (HPLC, tritium labeled estrone)
# Format: cell-based
# CONDITION DETAILS: MCF7, 1 μM compound, 2 nM estrone, read-out: % Inhibition of the 17β-HSD enzyme type 1 (HSD1)
Would you please tag the item t when its inhibition at 1 µM is 10% or above, and f when it is below?

// known answers, use as guide
CCOC(=O)C1CCc2nc3sc4c(c3c(=O)n2CC1)CCC(C=O)=C4Cl (centres unmarked); t
CCCSC1=C(C=O)CCc2c1sc1nc3n(c(=O)c21)CCCCC3; t

-- ask Can `O=C(O)C1=C(Cl)c2sc3nc4n(c(=O)c3c2CC1)CCCCC4` be said to have inhibition at 1 µM at or above 10%?
-- reply f

-- ask Can `O=C1CCc2c1sc1nc3n(c(=O)c21)CCCCC3` be said to have inhibition at 1 µM at or above 10%?
-- reply t
